Catalogue of molecules with associated mass density
ASSAY_SETUP: 308.15 K; 101 kPa; Liquid
Numbers after ± are expanded uncertainties.

CC(C)CO
801.11 ± 8 kg/m3
CC(C)CCO
812.34 ± 8.1 kg/m3
CCO
776.99 ± 7.8 kg/m3
CCCO
801.32 ± 8 kg/m3
CCCCO
800.67 ± 8 kg/m3

Ask | State the recorded mass density for this entry: CC(C)O
Reply | 772.43 ± 7.7 kg/m3

Ask | State the recorded mass density for this entry: CC1CCCCC1
Reply | 756.3 ± 7.6 kg/m3

====

ASSAY_SETUP: 298.15 K; 101 kPa; Liquid; Linear variable-path acoustic interferometer
Catalogue of compounds with associated speed of sound
Provide only the numeric value, understood in m/s.

CC(C)CO [2-methyl-1-propanol]
1170
CCCO [propan-1-ol]
1206
CC1CCCCC1 [methylcyclohexane]
1217
CCO [ethanol]
1161
CC(C)O [propan-2-ol]
1144

Ask | State the recorded speed of sound for this entry: CC(C)CCO [3-methylbutan-1-ol]
Reply | 1259

Ask | State the recorded speed of sound for this entry: CCCCO [butan-1-ol]
Reply | 1268

Provenance of the data: the NIST ThermoML archive (doi:10.1016/j.jct.2005.06.011)
